- tested.system: Vitamin D3 receptor (Homo sapiens) (UniProt P11473)
- Sequence (P11473 whole entry, looked up): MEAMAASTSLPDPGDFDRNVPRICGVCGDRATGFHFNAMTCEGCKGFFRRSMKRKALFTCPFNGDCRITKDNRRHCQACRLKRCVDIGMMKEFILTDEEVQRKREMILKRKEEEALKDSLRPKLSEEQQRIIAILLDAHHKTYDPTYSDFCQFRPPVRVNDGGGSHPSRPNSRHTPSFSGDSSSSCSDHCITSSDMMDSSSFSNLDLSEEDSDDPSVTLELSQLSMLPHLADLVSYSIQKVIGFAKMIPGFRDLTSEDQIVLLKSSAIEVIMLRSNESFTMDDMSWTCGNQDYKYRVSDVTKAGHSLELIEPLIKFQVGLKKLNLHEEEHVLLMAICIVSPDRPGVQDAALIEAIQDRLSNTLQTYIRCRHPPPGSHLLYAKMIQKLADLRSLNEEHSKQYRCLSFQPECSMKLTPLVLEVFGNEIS
- procedure.text: qHTS assay to identify small molecule antagonists of the vitamin D receptor (VDR) signaling pathway (AID 743223)
- condition.details: VDR-UAS-bla HEK293T, beta-lactamase FRET ratio, 16 h; series mostly up to 61 µM
Inconclusive results are not listed. Calls of active or inactive are those of the source. Calls come from the whole dose curve; as a rule, active = well fitted inhibition curve with a large enough effect in the signal ratio in the repeat runs (not every such curve was filed as active); inconclusive = weak or mixed curves, or effect the other way; inactive = no such curve, though single readings can be large or run the other way; the % refers to the signal ratio.
Output constraint: value belongs to Yes (active), No (inactive)

// below: answered molecules
INSERT INTO results (molecule, assigned_category) VALUES
  ('CN(C)C(=S)SC(=S)N(C)C', 'Yes'),
  ('CC(=O)C(=O)O', 'No');

QUERY: Fill in: this test's call for Cc1cn([C@H]2C=C[C@@H](CO)O2)c(=O)[nH]c1=O is ___
RESULT: No

QUERY: Another: CCCCC1(COC(=O)CCC(=O)O)C(=O)N(c2ccccc2)N(c2ccccc2)C1=O
RESULT: No

QUERY: Another: OC[C@H]1O[C@H](O[C@]2(CCl)O[C@H](CCl)[C@@H](O)[C@@H]2O)[C@H](O)[C@@H](O)[C@H]1Cl
RESULT: No

QUERY: Another: CCc1nc(N)nc(N)c1-c1ccc(Cl)cc1
RESULT: No

QUERY: Another: CCCC[P+](CCCC)(CCCC)CCCC
RESULT: No
